# measurement target: Human Axl (Homo sapiens, UniProt P30530, Q764R)
# Construct: Human Axl (residues H473-A894 with Q764R, 161 nM)
# Sequence (P30530 473-894 Q764R): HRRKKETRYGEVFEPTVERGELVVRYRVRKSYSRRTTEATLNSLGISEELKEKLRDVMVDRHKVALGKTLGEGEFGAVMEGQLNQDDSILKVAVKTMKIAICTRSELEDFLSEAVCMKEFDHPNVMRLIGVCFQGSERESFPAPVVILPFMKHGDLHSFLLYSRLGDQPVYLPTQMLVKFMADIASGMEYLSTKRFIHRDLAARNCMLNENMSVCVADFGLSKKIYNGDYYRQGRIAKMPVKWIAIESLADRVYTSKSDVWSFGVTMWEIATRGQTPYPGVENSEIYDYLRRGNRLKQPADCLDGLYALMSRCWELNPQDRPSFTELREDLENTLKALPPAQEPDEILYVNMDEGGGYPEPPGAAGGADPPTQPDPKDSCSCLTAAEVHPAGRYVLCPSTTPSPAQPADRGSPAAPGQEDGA
# method summary: Human AXL kinase assay (33P-phosphoryl transfer radiometric, KinaseProfiler)
# experimental context: biochemical activity; 10 μM ATP
# Protocol: Kinase activity and compound inhibition were investigated using the ^33P-Phosphoryl transfer radiometric kinase assay, performed using the KinaseProfiler™ service of Eurofins Pharma Discovery Services UK Limited. Dose-response experiments were performed using nine compound concentrations in a 96-well microtiter plate. […] IC50 values were calculated by nonlinear regression analysis using the sigmoidal dose-response (variable slope) curve fit on XLFit version 5.3 (ID Business Solutions). […]
The following compounds are shown together with reported IC50 values.
measured property: IC50

[
  {
    "compound": "O=C(Nc1ccc(F)cc1)C1(C(=O)Nc2ccc(Oc3ccnc4cc(-c5ncco5)ccc34)cc2)CC1",
    "measured property": "IC50",
    "result": "10 to 100 nM"
  },
  {
    "compound": "O=C(Nc1ccc(F)cc1)C1(C(=O)Nc2ccc(Oc3ccnc4cc(-c5cnn(C6CC6)c5)ccc34)cc2)CC1",
    "measured property": "IC50",
    "result": "10 to 100 nM"
  },
  {
    "compound": "Cn1cc(-c2ccc3c(Oc4ccc(NC(=O)C5(C(=O)Nc6ccc(F)cc6)CC5)cc4)ccnc3c2)cn1",
    "measured property": "IC50",
    "result": "≤ 10 nM"
  },
  {
    "compound": "CCn1cc(-c2ccc3c(Oc4ccc(NC(=O)C5(C(=O)Nc6ccc(F)cc6)CC5)cc4)ccnc3c2)cn1",
    "measured property": "IC50",
    "result": "≤ 10 nM"
  },
  {
    "compound": "O=C(Nc1ccc(F)cc1)C1(C(=O)Nc2ccc(Oc3ccnc4cc(-c5cnn(CC(F)(F)F)c5)ccc34)cc2)CC1",
    "measured property": "IC50",
    "result": "10 to 100 nM"
  },
  {
    "compound": "C#Cc1ccc2c(Oc3ccc(NC(=O)C4(C(=O)Nc5ccc(F)cc5)CC4)cc3)ccnc2c1",
    "measured property": "IC50",
    "result": "10 to 100 nM"
  },
  {
    "compound": "Cn1cc(-c2ccc3c(Oc4ccc(NC(=O)C5(C(=O)N6CCc7cc(F)ccc76)CC5)cc4)ccnc3c2)cn1",
    "measured property": "IC50",
    "result": "≤ 10 nM"
  },
  {
    "compound": "O=C(Nc1ccc(F)cc1)C1(C(=O)Nc2ccc(Oc3ccnc4cc(-c5ccncc5)ccc34)cc2)CC1",
    "measured property": "IC50",
    "result": "10 to 100 nM"
  },
  {
    "compound": "CC1Cc2cc(F)ccc2N1C(=O)C1(C(=O)Nc2ccc(Oc3ccnc4cc(-c5cnn(C)c5)ccc34)cc2)CC1 (stereo not shown)",
    "measured property": "IC50",
    "result": "10 to 100 nM"
  },
  {
    "compound": "Cc1cc(F)cc(C)c1NC(=O)C1(C(=O)Nc2ccc(Oc3ccnc4cc(-c5cnn(C)c5)ccc34)cc2)CC1",
    "measured property": "IC50",
    "result": "10 to 100 nM"
  },
  {
    "compound": "COc1cc2c(Oc3ccc(NC(=O)C4(C(=O)Nc5ccc(F)cc5)CC4)cc3)ccnc2cc1-c1cnn(C)c1",
    "measured property": "IC50",
    "result": "≤ 10 nM"
  },
  {
    "compound": "O=C(Nc1ccc(F)cc1)C1(C(=O)Nc2ccc(Oc3ccnc4cc(-c5cnn(C6COC6)c5)ccc34)cc2)CC1",
    "measured property": "IC50",
    "result": "≤ 10 nM"
  },
  {
    "compound": "O=C(Nc1ccc(F)cc1)C1(C(=O)Nc2ccc(Oc3ccnc4cc(-c5nnco5)ccc34)cc2)CC1",
    "measured property": "IC50",
    "result": "10 to 100 nM"
  },
  {
    "compound": "Cn1ccc(-c2ccc3c(Oc4ccc(NC(=O)C5(C(=O)Nc6ccc(F)cc6)CC5)cc4)ccnc3c2)n1",
    "measured property": "IC50",
    "result": "10 to 100 nM"
  },
  {
    "compound": "CN1CCC(n2cc(-c3ccc4c(Oc5ccc(NC(=O)C6(C(=O)Nc7ccc(F)cc7)CC6)cc5)ccnc4c3)cn2)CC1",
    "measured property": "IC50",
    "result": "≤ 10 nM"
  },
  {
    "compound": "O=C(Nc1ccc(F)cc1)C1(C(=O)Nc2ccc(Oc3ccnc4cc(-c5cnn(C(F)F)c5)ccc34)cc2)CC1",
    "measured property": "IC50",
    "result": "10 to 100 nM"
  },
  {
    "compound": "O=C(Nc1ccc(F)cc1)C1(C(=O)Nc2ccc(Oc3ccnc4cc(-c5cnn(CCO)c5)ccc34)cc2)CC1",
    "measured property": "IC50",
    "result": "≤ 10 nM"
  },
  {
    "compound": "Cn1cnc(-c2ccc3c(Oc4ccc(NC(=O)C5(C(=O)Nc6ccc(F)cc6)CC5)cc4)ccnc3c2)c1",
    "measured property": "IC50",
    "result": "≤ 10 nM"
  },
  {
    "compound": "Cc1cc2c(Oc3ccc(NC(=O)C4(C(=O)Nc5ccc(F)cc5)CC4)cc3)ccnc2cc1-c1cnn(C)c1",
    "measured property": "IC50",
    "result": "≤ 10 nM"
  },
  {
    "compound": "O=C(Nc1ccc(F)cc1)C1(C(=O)Nc2ccc(Oc3ccnc4cc(-c5ccccn5)ccc34)cc2)CC1",
    "measured property": "IC50",
    "result": "10 to 100 nM"
  },
  {
    "compound": "Cn1ccnc1-c1ccc2c(Oc3ccc(NC(=O)C4(C(=O)Nc5ccc(F)cc5)CC4)cc3)ccnc2c1",
    "measured property": "IC50",
    "result": "10 to 100 nM"
  },
  {
    "compound": "COCCn1cc(-c2ccc3c(Oc4ccc(NC(=O)C5(C(=O)Nc6ccc(F)cc6)CC5)cc4)ccnc3c2)cn1",
    "measured property": "IC50",
    "result": "≤ 10 nM"
  },
  {
    "compound": "O=C(Nc1ccc(F)cc1)C1(C(=O)Nc2ccc(Oc3ccnc4cc(-c5cnn(CC(F)F)c5)ccc34)cc2)CC1",
    "measured property": "IC50",
    "result": "≤ 10 nM"
  },
  {
    "compound": "O=C(Nc1ccc(F)cc1)C1(C(=O)Nc2ccc(Oc3ccnc4cc(-c5ncc[nH]5)ccc34)cc2)CC1",
    "measured property": "IC50",
    "result": "≤ 10 nM"
  },
  {
    "compound": "O=C(Nc1ccc(F)cc1)C1(C(=O)Nc2ccc(Oc3ccnc4cc(-c5cnn(CCF)c5)ccc34)cc2)CC1",
    "measured property": "IC50",
    "result": "≤ 10 nM"
  },
  {
    "compound": "O=C(Nc1ccc(F)cc1)C1(C(=O)Nc2ccc(Oc3ccnc4cc(-c5cnn[nH]5)ccc34)cc2)CC1",
    "measured property": "IC50",
    "result": "100 to 1000 nM"
  },
  {
    "compound": "CS(=O)(=O)n1cc(-c2ccc3c(Oc4ccc(NC(=O)C5(C(=O)Nc6ccc(F)cc6)CC5)cc4)ccnc3c2)cn1",
    "measured property": "IC50",
    "result": "≤ 10 nM"
  },
  {
    "compound": "O=C(Nc1ccc(F)cc1)C1(C(=O)Nc2ccc(Oc3ccnc4cc(-c5cnoc5)ccc34)cc2)CC1",
    "measured property": "IC50",
    "result": "≤ 10 nM"
  }
]
